# assayed target: human CB1 (hCB1) receptor (Homo sapiens)
# Construct: expressed in transfected cells; host or cells: CHO-K1
# Sequence (P21554 whole entry): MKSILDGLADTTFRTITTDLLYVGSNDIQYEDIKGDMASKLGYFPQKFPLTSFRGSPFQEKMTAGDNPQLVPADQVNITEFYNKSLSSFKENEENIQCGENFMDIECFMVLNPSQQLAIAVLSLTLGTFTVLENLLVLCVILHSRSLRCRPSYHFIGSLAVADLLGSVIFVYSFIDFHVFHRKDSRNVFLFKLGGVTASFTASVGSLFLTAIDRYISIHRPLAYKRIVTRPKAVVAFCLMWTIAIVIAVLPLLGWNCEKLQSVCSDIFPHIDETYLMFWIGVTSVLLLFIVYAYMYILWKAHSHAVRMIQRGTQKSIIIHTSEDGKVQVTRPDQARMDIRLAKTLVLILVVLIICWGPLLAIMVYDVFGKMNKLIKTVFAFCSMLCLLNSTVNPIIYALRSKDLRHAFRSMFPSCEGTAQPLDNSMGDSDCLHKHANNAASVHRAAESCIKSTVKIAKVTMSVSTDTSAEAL
# assay notes: Inhibition of forskolin-activated cAMP production upon activation of hCB1 (HTRF), CHO-K1 cells
# Format: cell-based
# condition parameters: CB1 pEC50, hCB1-CHO-K1 cells, forskolin-activated cAMP, pEC50=-log(EC50)
pEC50: −log10 of the molar value.
# maps each entry to its pEC50

Recorded results for 3 compounds are shown here.
compound	readout label	endpoint value
CC(C)(C)c1nc2cc(S(=O)(=O)c3ccnc(F)c3)ccc2n1CCC1OCCO1 [Co. No. 165]	pEC50	< 5.00
CC(=O)NCCCOc1cc(S(=O)(=O)c2ccc3c(c2)nc(C(C)(C)C)n3CC2CCOCC2)ccn1 [Co. No. 132]	pEC50	< 5.00
CC(C)(C)Cn1c(C(C)(C)C)nc2cc(S(=O)(=O)c3ccnc(F)c3)ccc21 [Co. No. 127]	pEC50	< 5.00

Input line: Looking for the measured pEC50 of CC(C)(C)c1nc2cc(S(=O)(=O)c3ccnc(CCCCN)c3)ccc2n1CC1CCOCC1 [Co. No. 139] , can you help?
Output line: < 5.00

Input line: Looking for the measured pEC50 of COc1ccc(CNCCc2cc(S(=O)(=O)c3ccc4c(c3)nc(C(C)(C)C)n4CC3CCOCC3)ccn2)cc1 [Co. No. 157] , can you help?
Output line: < 5.00

Input line: Looking for the measured pEC50 of CC(C)(C)c1nc2cc(S(=O)(=O)c3ccnc(F)c3)ccc2n1CCC1CCOCC1 [Co. No. 128] , can you help?
Output line: < 5.00

Input line: Looking for the measured pEC50 of CC(C)(C)c1nc2cc(S(=O)(=O)c3ccc(OCC(F)(F)F)nc3)ccc2n1CC1CCOCC1 [Co. No. 108] , can you help?
Output line: < 5.00

Input line: Looking for the measured pEC50 of COc1ncc(S(C)(=O)=O)cc1S(=O)(=O)c1ccc2c(c1)nc(C(C)(C)C)n2CC1CCOCC1 [Co. No. 78] , can you help?
Output line: < 5.00

Input line: Looking for the measured pEC50 of CC(C)(C)c1nc2cc(S(=O)(=O)c3ccnc(C(F)(F)F)c3)ccc2n1CC1CCOCC1 [Co. No. 119] , can you help?
Output line: < 5.00

Input line: Looking for the measured pEC50 of CC(C)(C)c1nc2cc([S+]([O-])c3cc[n+]([O-])cc3C(F)(F)F)ccc2n1CC1CCOCC1 (stereo not shown) [Co. No. 95] , can you help?
Output line: < 5.00

These data points were gathered from patent US9284303B2.
